# PROTOCOL TEXT: Cytotoxicity against mouse J774.1 cells after 72 hrs by MTT assay
# Assay type: cell-based
# PARTICULARS: J774.1 cells
Criterion: CC50 at 72 h strictly less than 30 µM. Met: Satisfied. Not met: Not satisfied.

For orientation, consider the following solved cases.
In [3]: df
Out[3]:
                                   compound  assigned_category
0  O=[N+]([O-])c1c(CS(=O)(=O)c2ccc(Cl)cc2)nc2ccc(Br)cn12      Not satisfied
1  COc1ccc(S(=O)(=O)Cc2nc3ccc(Br)cn3c2[N+](=O)[O-])cc1      Not satisfied
2     Cc1ccc(S(=O)(=O)Cc2cn3cc(I)ccc3n2)cc1          Satisfied
3  O=[N+]([O-])c1c(CS(=O)(=O)c2ccccc2)nc2ccccn12      Not satisfied
4  O=[N+]([O-])c1c(CS(=O)(=O)c2ccc(I)cc2)nc2ccc(Br)cn12          Satisfied
5  O=[N+]([O-])c1c(CS(=O)(=O)c2ccc(F)cc2)nc2ccc(Br)cn12      Not satisfied
6    O=S(=O)(Cc1cn2cc(I)ccc2n1)c1ccc(Cl)cc1      Not satisfied
7  O=[N+]([O-])c1c(CS(=O)(=O)c2ccc(Br)cc2)nc2ccc(Br)cn12          Satisfied

Take the compound "O=S(=O)(Cc1cn2cc(Cl)ccc2n1)c1ccc(Cl)cc1" and say whether its CC50 at 72 h is less than 30 µM.
Not satisfied

Take the compound "Cc1ccc(S(=O)(=O)Cc2nc3ccc(Cl)cn3c2[N+](=O)[O-])cc1" and say whether its CC50 at 72 h is less than 30 µM.
Not satisfied

Take the compound "Cc1ccc(S(=O)(=O)Cc2nc3ccc(I)cn3c2[N+](=O)[O-])cc1" and say whether its CC50 at 72 h is less than 30 µM.
Not satisfied

Take the compound "Cc1ccccc1-c1ccc2nc(CS(=O)(=O)c3ccccc3)c([N+](=O)[O-])n2c1" and say whether its CC50 at 72 h is less than 30 µM.
Satisfied

Take the compound "Cc1ccc(S(=O)(=O)Cc2cn3cc(Cl)ccc3n2)cc1" and say whether its CC50 at 72 h is less than 30 µM.
Not satisfied

Take the compound "O=[N+]([O-])c1c(CS(=O)(=O)c2ccc(Cl)cc2)nc2ccc(I)cn12" and say whether its CC50 at 72 h is less than 30 µM.
Not satisfied

----------
# PROTOCOL TEXT: Selectivity index, ratio of CC50 for mouse J774.1 cells to IC50 for Leishmania donovani MHOM/IN/00/DEVI
# Assay type: functional
READOUT TYPE: Ratio CC50/IC50
Just the number.

# example entries with known answers
>>> print(df.to_string())
                         structure_notation     readout_type  result
0  O=[N+]([O-])c1c(CS(=O)(=O)c2ccccc2)nc2ccc(I)cn12  Ratio CC50/IC50     2.1
1            O=[N+]([O-])c1c(CCl)nc2ccccn12  Ratio CC50/IC50     0.3
2  O=[N+]([O-])c1c(CS(=O)(=O)c2ccc(Cl)cc2)nc2ccc(I)cn12  Ratio CC50/IC50     1.5

Entry under review: "N=C(N)c1ccc(OCCCCCOc2ccc(C(=N)N)cc2)cc1" . Reported Ratio CC50/IC50?
0.1

----------
# PROTOCOL TEXT: Cytotoxicity against human HepG2 cells after 72 hrs by MTT assay
# Assay type: cell-based
# PARTICULARS: HepG2 cells
CC50 at 72 h values for the compounds below.
Please respond with the number in µM and leave the unit unwritten.

>>> df
                         structure_notation  result
0            O=[N+]([O-])c1c(CCl)nc2ccccn12     8.7
1  Cc1ccc(S(=O)(=O)Cc2nc3ccc(Br)cn3c2[N+](=O)[O-])cc1     5.9

# next compound below
Entry under review: "COc1cc(-c2ccc3nc(CS(=O)(=O)c4ccccc4)c([N+](=O)[O-])n3c2)cc(OC)c1OC" . Reported CC50 at 72 h?
34.7

----------
# PROTOCOL TEXT: Selectivity index, ratio of CC50 for mouse J774.1 cells to IC50 for Leishmania donovani MHOM/IN/00/DEVI
# Assay type: functional
READOUT TYPE: Ratio CC50/IC50

# example entries with known answers
                         structure_notation  result
0       O=S(=O)(Cc1cn2cc(Br)ccc2n1)c1ccccc1    <0.1
1  O=[N+]([O-])c1c(CS(=O)(=O)c2ccccc2)nc2ccc(Cl)cn12    >5.5
2    O=S(=O)(Cc1cn2cc(I)ccc2n1)c1ccc(Cl)cc1    <0.8
3                      ClCc1cn2cc(Br)ccc2n1    <1.4

# next compound below
Entry under review: "O=[N+]([O-])c1c(CS(=O)(=O)c2ccc(-c3ccccc3)cc2)nc2ccc(Br)cn12" . Reported Ratio CC50/IC50?
<1.1

----------
CC50 at 72 h values for the compounds below.
# PROTOCOL TEXT: Cytotoxicity against mouse J774.1 cells after 72 hrs by MTT assay
# Assay type: cell-based
# PARTICULARS: J774.1 cells
Please respond with the number in µM and leave the unit unwritten.

# example entries with known answers
>>> print(df.to_string())
                        structure_notation  readout_type  result
0  N=C(N)c1ccc(OCCCCCOc2ccc(C(=N)N)cc2)cc1  CC50 at 72 h       1
1       O=S(=O)(Cc1cn2cc(I)ccc2n1)c1ccccc1  CC50 at 72 h     5.2

Entry under review: "ClCc1cn2cc(Br)ccc2n1" . Reported CC50 at 72 h?
68.4

Entry under review: "O=S(=O)(Cc1cn2cc(Cl)ccc2n1)c1ccccc1" . Reported CC50 at 72 h?
13.3

Entry under review: "O=[N+]([O-])c1c(CCl)nc2ccc(Br)cn12" . Reported CC50 at 72 h?
4.9

----------
Ratio CC50/IC50 values for the compounds below.
# PROTOCOL TEXT: Selectivity index, ratio of CC50 for mouse J774.1 cells to IC50 for Leishmania donovani MHOM/IN/00/DEVI
# Type: functional

>>> df
                    structure_notation     readout_type  result
0  O=S(=O)(Cc1cn2cc(Cl)ccc2n1)c1ccccc1  Ratio CC50/IC50    <0.3

Entry under review: "O=[N+]([O-])c1c(CS(=O)(=O)c2ccc(I)cc2)nc2ccc(Br)cn12" . Reported Ratio CC50/IC50?
<0.3

Entry under review: "O=S(=O)(Cc1cn2cc(Cl)ccc2n1)c1ccc(Cl)cc1" . Reported Ratio CC50/IC50?
<1.3

Entry under review: "Cc1ccccc1-c1ccc2nc(CS(=O)(=O)c3ccccc3)c([N+](=O)[O-])n2c1" . Reported Ratio CC50/IC50?
<0.5

Entry under review: "O=[N+]([O-])c1c(CS(=O)(=O)c2ccccc2)nc2c(Br)cc(Br)cn12" . Reported Ratio CC50/IC50?
>13.4

Entry under review: "O=S(=O)(Cc1cn2cc(I)ccc2n1)c1ccccc1" . Reported Ratio CC50/IC50?
<0.1

----------
# PROTOCOL TEXT: Cytotoxicity against mouse J774.1 cells after 72 hrs by MTT assay
# Format: cell-based
# PARTICULARS: J774.1 cells
CC50 at 72 h values for the compounds below.

>>> print(df.to_string())
                         structure_notation   result
0  O=[N+]([O-])c1c(CS(=O)(=O)c2ccccc2)nc2c(Br)cc(Br)cn12  > 25 µM
1  O=[N+]([O-])c1c(CS(=O)(=O)c2ccc(C(F)(F)F)cc2)nc2ccc(Br)cn12  > 25 µM

# next compound below
Entry under review: "O=[N+]([O-])c1c(CSc2ccccc2)nc2ccc(Br)cn12" . Reported CC50 at 72 h?
> 6 µM
